- Study Target: HLA-DRB5*0101 (human)
- Measurement Protocol: competition binding
Observable: pIC50
Keep in mind that pIC50 stands for -log10 of concentration in molar terms.

Need pIC50 of TQFVRFDSDAASQRM [peptide p7 (residues 31-45 of HLA-A2)] , thanks.
5.81
